Test: High-throughput drug toxicity screening in the BPDCN cell line Gen2.2 (AID 1224824);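 further: cells exposed to compounds for 48 h before reading; 100% = DMSO and 0% = bortezomib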
Conditions: Gen2.2 BPDCN cells; at 45.8 µM (top of the series) unless noted
Excerpt: Blastic plasmacytoid dendritic cell neoplasm (BPDCN) is a rare, aggressive and largely incurable hematologic malignancy originating from plasmacytoid dendritic cells (pDCs). Although an initial response to chemotherapy is common, BPDCN prognosis is extremely poor and most patients relapse with drug-resistant disease leading to a median overall survival of ~1 year after diagnosis. […]
Assign cell viability, % of control (lower = more cytotoxic) to each entry below.
Number only, in %; omit the unit.

Assign cell viability, % of control (lower = more cytotoxic) to the following record: `CC1(C)CCC(CN2CCN(c3ccc(C(=O)NS(=O)(=O)c4ccc(NCC5CCOCC5)c([N+](=O)[O-])c4)c(Oc4cnc5[nH]ccc5c4)c3)CC2)=C(c2ccc(Cl)cc2)C1` 37.9

Assign cell viability, % of control (lower = more cytotoxic) to the following record: `CC(C)(Cc1ccc2ccccc2c1)NC[C@@H](O)COc1cccc(Cl)c1C#N` 123

Assign cell viability, % of control (lower = more cytotoxic) to the following record: `Cn1cc(C=C2C(=O)Nc3cccnc32)c2ccccc21` 111

Assign cell viability, % of control (lower = more cytotoxic) to the following record: `Nc1ncnc2c1ncn2[C@@H]1O[C@H](CO)C[C@@H]1O` 96.4

Assign cell viability, % of control (lower = more cytotoxic) to the following record: `C[C@]12CC[C@@H]3c4ccc(O)cc4CC[C@H]3[C@H]1C[C@@H](O)[C@H]2O` 77.1

Assign cell viability, % of control (lower = more cytotoxic) to the following record: `c1ccc2c(-c3cnn4cc(-c5ccc(N6CCNCC6)cc5)cnc34)ccnc2c1` 3.03

Assign cell viability, % of control (lower = more cytotoxic) to the following record: `COc1ccc2cccc(CCNC(C)=O)c2c1` 206

Assign cell viability, % of control (lower = more cytotoxic) to the following record: `Cc1ccn(-c2ccc(-c3ncco3)cc2)c(=O)c1-c1ccc2nc(N)ncc2c1` 316

Assign cell viability, % of control (lower = more cytotoxic) to the following record: `CO[C@@H](C(=O)N1Cc2[nH]nc(NC(=O)c3ccc(N4CCN(C)CC4)cc3)c2C1)c1ccccc1` 134

Assign cell viability, % of control (lower = more cytotoxic) to the following record: `O=c1cc(-c2ccc(O)cc2)oc2cc(O)cc(O)c12` 8.72

Assign cell viability, % of control (lower = more cytotoxic) to the following record: `COc1cc2nc(-c3ccc(N4CCN(C)CC4)cc3)nc(NCCN3CCOCC3)c2cc1OC` 1.57

Assign cell viability, % of control (lower = more cytotoxic) to the following record: `O=C(CCN1CCN(C(=O)OCc2cc(Cl)cc(Cl)c2)CC1)c1ccc2[nH]c(=O)oc2c1` 231

Assign cell viability, % of control (lower = more cytotoxic) to the following record: `CC(C)C(=O)Oc1ccc(CO)cc1[C@H](CCN(C(C)C)C(C)C)c1ccccc1` 126

Assign cell viability, % of control (lower = more cytotoxic) to the following record: `COC[C@@H](c1ccc(C(F)(F)F)cc1)N1CCN(C2(C)CCN(C(=O)c3c(C)ncnc3C)CC2)C[C@H]1C` 7.13

Assign cell viability, % of control (lower = more cytotoxic) to the following record: `N[C@@]1(C(=O)O)CS(=O)(=O)[C@H]2[C@H](C(=O)O)[C@H]21` 78.4

Assign cell viability, % of control (lower = more cytotoxic) to the following record: COc1ccc2cc(-c3nc(-c4ccc(S(C)=O)cc4)[nH]c3-c3ccncc3)ccc2c1 (configuration not stated) 470

Assign cell viability, % of control (lower = more cytotoxic) to the following record: `NC(=O)NN=Cc1ccc([N+](=O)[O-])o1` 172

Assign cell viability, % of control (lower = more cytotoxic) to the following record: `NC[C@@H]1O[C@@H](O[C@H]2[C@@H](O)[C@H](O[C@@H]3[C@@H](O)[C@@H](N)C[C@H](N)[C@H]3O[C@H]3O[C@H](CN)[C@@H](O)[C@@H](O)[C@H]3N)O[C@H]2CO)[C@H](N)[C@@H](O)[C@@H]1O` 134

Assign cell viability, % of control (lower = more cytotoxic) to the following record: `CCn1cc(C(=O)O)c(=O)c2ccc(C)nc21` 120

Assign cell viability, % of control (lower = more cytotoxic) to the following record: `COc1ncc(-c2ccc3nccc(-c4ccnnc4)c3c2)cc1NS(=O)(=O)c1ccc(F)cc1F` 3.44

Assign cell viability, % of control (lower = more cytotoxic) to the following record: O=C(O)CCC1CCC(c2cc(F)ccc2F)(S(=O)(=O)c2ccc(Cl)cc2)CC1 (configuration not stated) 8.09

----------
Assay: P-glycoprotein substrates identified in KB-8-5-11 adenocarcinoma cell line, qHTS therapeutic library screen (AID 1346987); further: nearly all actives have a fitted effect of over 65% in size
Details: KB-8-5-11 (P-gp overexpressing) viability, CellTiter-Glo, 72 h; series mostly up to 44.5 µM
Inconclusive results are not listed. Calls of active or inactive are those of the source. The call rests on the fitted dose curve; in most records, active means well fitted inhibition curve with a large enough effect; inconclusive means small, poorly fitted or top-dose-only effect; inactive means flat fitted curve, though single readings scatter.
In this exercise, the only acceptable responses are T (active), F (inactive)

Any idea what this test logged for COCCOC(=O)C1=C(C)NC2=C(C(=O)CC(c3ccccc3OC)C2)C1c1cccc(O)c1 (configuration not stated) ? F

Any idea what this test logged for `OC[C@H]1O[C@@H](n2cnc3c2NC=NC[C@@H]3O)C[C@H]1O` ? F

Any idea what this test logged for O=C(O)C(O)Cc1ccc(O)c(O)c1 (configuration not stated) ? F

Any idea what this test logged for `Cn1cc(C=C2C(=O)Nc3cccnc32)c2ccccc21` ? F

Any idea what this test logged for `N[C@@]1(C(=O)O)CS(=O)(=O)[C@H]2[C@H](C(=O)O)[C@H]21` ? F

Any idea what this test logged for `O=C(N[C@@H](c1ccccc1)[C@@H]1CCCCN1)c1cccc(C(F)(F)F)c1Cl` ? F

Any idea what this test logged for `CC#CCn1c(N2CCC[C@@H](N)C2)nc2c1c(=O)n(Cc1nc(C)c3ccccc3n1)c(=O)n2C` ? F

Any idea what this test logged for `COc1ccc2c(Oc3ccc(NC(=O)c4c(C)n(CC(C)(C)O)n(-c5ccccc5)c4=O)nc3)ccnc2c1` ? F

Any idea what this test logged for `NC(=O)NN=Cc1ccc([N+](=O)[O-])o1` ? F

Any idea what this test logged for `CC(=O)c1ccc(S(=O)(=O)NC(=O)NC2CCCCC2)cc1` ? F

Any idea what this test logged for `CC(=O)O[C@]1(C(C)=O)CC[C@@H]2[C@@H]3C[C@H](C)C4=CC(=O)CC[C@]4(C)[C@H]3CC[C@@]21C` ? F

Any idea what this test logged for `CC1=C(/C=C/C(C)=C/C=C/C(C)=C/C(=O)Nc2ccc(O)cc2)C(C)(C)CCC1` ? T

Any idea what this test logged for `C[C@H](NC(=O)C(=O)Nc1ccccc1C(C)(C)C)C(=O)N[C@@H](CC(=O)O)C(=O)COc1c(F)c(F)cc(F)c1F` ? F

Any idea what this test logged for `CCS(=O)(=O)N1CC(CC#N)(n2cc(-c3ncnc4[nH]ccc34)cn2)C1` ? F

Any idea what this test logged for `CC(C)C[C@H](CC(=O)O)C(=O)N[C@@H](Cc1c[nH]c2ccccc12)C(=O)N[C@@H](C)c1ccccc1` ? F

Any idea what this test logged for `O=C1C[C@@H](c2ccc(O)cc2)Oc2cc(O)cc(O)c21` ? F

Any idea what this test logged for `NC(=O)c1cnc(-c2ccc(C3(N)CCC3)cc2)c(-c2ccccc2)c1` ? F

Any idea what this test logged for `CC(C)[C@H](CO)Nc1nc(Nc2ccc(C(=O)O)c(Cl)c2)c2ncn(C(C)C)c2n1` ? F

Any idea what this test logged for `CC1(C)Cc2c(sc(NC(=S)NC(=O)c3ccccc3)c2C(=O)O)CO1` ? F

Any idea what this test logged for `CC(=O)CCCCn1c(=O)c2c(ncn2C)n(C)c1=O` ? F

Any idea what this test logged for `COc1cccc(-c2cc(=O)c3ccccc3o2)c1N` ? F

Any idea what this test logged for `NS(=O)(=O)c1ccc(NC2=CC(=O)c3ccccc3C2=O)cc1` ? F

----------
Test system: Zika virus NS2B-NS3 protease (unlinked complex)
Test: Primary screen GU Rhodamine qHTS for Zika virus inhibitors: Unlinked NS2B-NS3 protease assay (AID 1347159); further: nearly all actives have a fitted effect of over 60% in size
Conditions: Recombinant ZIKV NS2B-NS3 protease, Rhodamine110 substrate fluorescence; series mostly up to 107 µM
Results filed as inconclusive are left out. Calls of active or inactive are those of the source. Calls follow the shape of the dose curve; as a rule, active = well fitted inhibition curve with a large enough effect; inconclusive = small, poorly fitted or top-dose-only effect; inactive = no such curve, though single readings can be large or run the other way.
In this exercise, the only acceptable responses are active, inactive

Any idea what this test logged for `Cn1c(N2CCCCS2(=O)=O)nc(C(=O)NCc2ccc(F)cc2)c(O)c1=O` ? inactive

Any idea what this test logged for `CC(C)n1nc(-c2ccc3oc(N)nc3c2)c2c(N)ncnc21` ? inactive

Any idea what this test logged for `COC(=O)[C@@H]1[C@H]2C[C@H]3c4[nH]c5ccccc5c4CCN3C[C@@H]2CC[C@@H]1O` ? inactive

Any idea what this test logged for `Cc1c(NC(=O)c2ccc(C(C)(C)C)cc2)cccc1-c1cn(C)c(=O)c(Nc2ccc(C(=O)N3CCOCC3)cc2)n1` ? inactive

Any idea what this test logged for `COc1ccc2c(Oc3ccc(NC(=O)c4c(C)n(CC(C)(C)O)n(-c5ccccc5)c4=O)cc3F)ccnc2c1` ? inactive

Any idea what this test logged for `O=C(O)c1cc(-c2ccccc2)nc2ccccc12` ? inactive

Any idea what this test logged for `CCOc1ccc(Nc2nc(-c3c(C)nc4ccccn34)cs2)cc1` ? inactive

Any idea what this test logged for `CC1(C)CCC(CN2CCN(c3ccc(C(=O)NS(=O)(=O)c4ccc(NCC5CCOCC5)c([N+](=O)[O-])c4)c(Oc4cnc5[nH]ccc5c4)c3)CC2)=C(c2ccc(Cl)cc2)C1` ? active

Any idea what this test logged for `O=C(Nc1ccccc1-c1cn2c(CN3CCNCC3)csc2n1)c1cnc2ccccc2n1` ? inactive

Any idea what this test logged for `CC(C)(C)NC(=O)Nc1cccc(Nc2ncc(F)c(NC(C)(C)CO)n2)c1` ? inactive

Any idea what this test logged for `COc1cc2nc(-c3ccc(N4CCN(C)CC4)cc3)nc(NCCN3CCOCC3)c2cc1OC` ? inactive

Any idea what this test logged for `CN(C[C@@H]1COCCO1)S(=O)(=O)Nc1ccc2ccc3ncc(-c4cnn(C)c4)cc3c(=O)c2c1` ? inactive

Any idea what this test logged for `COc1ccc2c(Oc3ccc(NC(=O)c4c(C)n(CC(C)(C)O)n(-c5ccccc5)c4=O)nc3)ccnc2c1` ? inactive

Any idea what this test logged for COc1ccc(C2CC(c3ccccc3)=NN2c2ccc(S(N)(=O)=O)cc2)cc1 (stereo not drawn) ? inactive

Any idea what this test logged for `CC(=O)Nc1ccc([C@H](C)C(=O)Nc2ncc(C(C)C)s2)cc1` ? inactive

Any idea what this test logged for CS(=O)c1ccc(-c2nc(-c3ccc(F)cc3)c(-c3ccncc3)[nH]2)cc1 (stereo not drawn) ? inactive

Any idea what this test logged for `Cc1nc(N)sc1-c1ccnc(Nc2ccc(N3CCOCC3)cc2)n1` ? inactive

Any idea what this test logged for `O=c1[nH]cnc2c1ncn2[C@H]1CC[C@@H](CO)O1` ? inactive

Any idea what this test logged for `CC(=O)CCCCn1c(=O)c2c(ncn2C)n(C)c1=O` ? inactive

Any idea what this test logged for `CCCNC(=O)NS(=O)(=O)c1ccc(Cl)cc1` ? inactive

Any idea what this test logged for Cc1ccccc1C(C(=O)NC1CCCCC1)N(C(=O)Cn1ccnc1C)c1cccc(F)c1 (stereo not drawn) ? inactive

Any idea what this test logged for `O=C(NC1CCOCC1)c1ccc(-c2cc(-c3cn[nH]c3-c3ccccn3)ccn2)cc1` ? inactive

Any idea what this test logged for `O=C(O)c1ccccc1C(=O)Nc1ccc(-c2ccccc2)cc1` ? inactive

Any idea what this test logged for `CC(C)(C)Cn1c(N)nc2ccc(-c3[nH]c(C(C)(C)C)nc3-c3ccc(F)cc3)nc21` ? inactive

Any idea what this test logged for `COc1cc2c(cc1OC)CN(CCc1ccc(NC(=O)c3cc(OC)c(OC)cc3NC(=O)c3cnc4ccccc4c3)cc1)CC2` ? inactive

Any idea what this test logged for CC1CCC(C(=O)N(c2cc(C#CC(C)(C)C)sc2C(=O)O)C2CCC(O)CC2)CC1 (stereo not drawn) ? active

Any idea what this test logged for `O=c1cc(CN2CCOCC2)occ1OCCCCCSc1ccnc2cc(C(F)(F)F)ccc12` ? inactive

Any idea what this test logged for C=C1C(=O)[C@@]23C(CC[C@@H]1[C@H]2O)[C@@]12CO[C@]3(O)[C@@H](O)[C@@H]1C(C)(C)CC[C@@H]2O (stereo partly drawn) ? inactive

Hello, the source for this data is PubChem BioAssay (NCATS), in case you need it.
